B1: CPEB3 Ribozyme (parent)
chain: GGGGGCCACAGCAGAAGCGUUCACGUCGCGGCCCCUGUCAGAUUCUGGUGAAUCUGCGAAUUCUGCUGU

Variants of: B1
EXPERIMENT DESCRIPTION: self-cleavage, relative activity (ratio to wild type); higher = more cleavage; co-transcriptional
VALUE TYPE: self-cleavage
Number only, please.

Some solved cases for reference:
{"MUTANT NAME": "C7A U67G", "self-cleavage": 0.858}
{"MUTANT NAME": "C22U U67G", "self-cleavage": 0.332}
{"MUTANT NAME": "C9G G31A", "self-cleavage": 0.936}
{"MUTANT NAME": "C32G C66U", "self-cleavage": 0.394}
{"MUTANT NAME": "G31U U55A", "self-cleavage": 0.428}

*Q* Given the variant G2A G4A , what is its reported self-cleavage?
*A* 0.0501

*Q* What does the record list as self-cleavage for G47C U61C ?
*A* 0.87

*Q* # query: self-cleavage of entry G2U G31A
*A* 0.0769

*Q* Need self-cleavage, item G28A U64C
*A* 0.151

*Q* Field request: self-cleavage | item: C9A C63G
*A* 0.806

*Q* Value lookup for self-cleavage; key = G3A A51G
*A* 0.584

*Q* Quick check: self-cleavage of G31A G41A ?
*A* 0.525

*Q* Entry under review: C35G U62C . Reported self-cleavage?
*A* 0.242

*Q* Please look up its self-cleavage: C9A U20C
*A* 0.197

*Q* Return reported self-cleavage; argument: U38C A52U
*A* 0.895

*Q* Consider the variant shown here: A15C U67A What is its recorded self-cleavage?
*A* 0.916
